- Test system: U-251
- Method description: Cytotoxicity against human U251 cells assessed as cell growth at 10 uM after 48 hrs by SRB assay relative to untreated control
- Assay type: functional
- Assay context: U-251, 48 h, read-out: Activity
Catalogue of compounds with associated growth at 10 µM

# Chemical smiles, Value units, growth at 10 µM
records = [
    ("C[C@@H]1NC(c2ccc(Br)cc2)=Nc2nc3ccccn3c2C1=O", "%", 54),
    ("C[C@@H]1NC(c2ccc(N(C)C)cc2)=Nc2nc3ccccn3c2C1=O", "%", 94.8),
    ("C[C@@H]1NC(c2ccccc2)=Nc2nc3ccccn3c2C1=O", "%", 102),
    ("C[C@H]1NC(c2ccc(Br)cc2)=Nc2nc3ccccn3c2C1=O", "%", 101),
    ("O=C1c2c(nc3ccccn23)N=C(c2ccccc2)N2CCC[C@@H]12", "%", 96.2),
    ("Cc1ccc(C2=Nc3nc4ccccn4c3C(=O)[C@H](Cc3ccccc3)N2)cc1", "%", 99.3),
    ("COc1ccc(C2=Nc3nc4ccccn4c3C(=O)[C@H](C)N2)cc1", "%", 98.5),
    ("O=C1Nc2nc3ccccn3c2C(=O)[C@H](Cc2ccccc2)N1", "%", 93.2),
    ("COc1ccc(C2=Nc3nc4ccccn4c3C(=O)[C@H](Cc3ccccc3)N2)cc1", "%", 95.3),
    ("Cc1ccc(C2=Nc3nc4ccccn4c3C(=O)[C@@H]3CCCN23)cc1", "%", 99.1),
    ("Cc1ccc(C2=Nc3nc4ccccn4c3C(=O)[C@H](C)N2)cc1", "%", 95.5),
    ("O=C1c2c(nc3ccccn23)NC(=O)N2CCC[C@@H]12", "%", 95.8),
    ("Cc1ccccc1C1=Nc2nc3ccccn3c2C(=O)[C@H](Cc2ccccc2)N1", "%", 100),
]
